Study Target: SARS-COV-2 RBD extracellular domain expressed with a C-terminal myc-myc-hexahistidine tag (SARS-CoV-2)
Experimental Protocol: SPR (Biacore), mAb captured by anti-human Fc, RBD-mmH in solution, 25 C
Give kon for every item shown.
Lab book: enter the figure in M⁻¹ s⁻¹, no units written.

Input: Retrieve kon measured for mAb14256 (antibody, V domains shown) VH: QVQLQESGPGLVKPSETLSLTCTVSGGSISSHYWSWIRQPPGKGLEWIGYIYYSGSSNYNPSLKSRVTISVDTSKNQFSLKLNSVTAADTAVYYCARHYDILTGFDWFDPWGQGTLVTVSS VL: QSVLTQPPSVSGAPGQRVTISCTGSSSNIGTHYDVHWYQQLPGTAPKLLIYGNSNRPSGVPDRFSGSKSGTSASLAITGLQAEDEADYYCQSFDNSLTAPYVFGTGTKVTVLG and print it.
Output: 1.11e+06

Input: Retrieve kon measured for mAb14255 (antibody, V domains shown) VH: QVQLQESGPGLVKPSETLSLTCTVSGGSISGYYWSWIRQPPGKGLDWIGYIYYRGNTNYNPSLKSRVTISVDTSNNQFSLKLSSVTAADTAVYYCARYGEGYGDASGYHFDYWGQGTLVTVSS VL: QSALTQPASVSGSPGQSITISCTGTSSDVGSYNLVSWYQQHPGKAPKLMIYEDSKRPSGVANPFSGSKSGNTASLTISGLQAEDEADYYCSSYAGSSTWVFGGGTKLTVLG and print it.
Output: 1.75e+06

Input: Retrieve kon measured for mAb14235 (antibody, V domains shown) VH: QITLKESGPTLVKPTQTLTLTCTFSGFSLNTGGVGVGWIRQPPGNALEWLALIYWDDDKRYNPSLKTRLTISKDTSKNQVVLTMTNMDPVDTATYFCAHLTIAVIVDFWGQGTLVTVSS VL: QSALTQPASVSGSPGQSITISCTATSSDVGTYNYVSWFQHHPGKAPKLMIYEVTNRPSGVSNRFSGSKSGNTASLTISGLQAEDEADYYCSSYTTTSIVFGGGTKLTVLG and print it.
Output: 789000
